- experimental details: Volume of distribution at steady state in rat at 2.25 mg/kg, iv
- Type: ADME, organism-based
- Parameters: dose 2.25 mg/kg, route intravenous
- conditions used: in vivo, read-out: Vdss
attribute measured: Vd (L/kg)
Give the quantity in L/kg, number only.

Task item: Which Vd value is on record for COc1ccc(/C=C/C(=O)c2ccc(OC)c3c2OC(C)(C)C=C3)cc1N ?
Reply: 21

###

- experimental details: Cmax in rat at 15 mg/kg, po
- Type: ADME, organism-based
- Design: dose 15 mg/kg, route oral
- conditions used: in vivo
attribute measured: Cmax (ng/mL)
Give the quantity in ng/mL, number only.

Task item: Which Cmax value is on record for COc1ccc(/C=C/C(=O)c2ccc(OC)c3c2OC(C)(C)C=C3)cc1N.Cl ?
Reply: 449
